Reported pIC50 values for a set of molecules
# SYSTEM_TESTED: HIV integrase (Human immunodeficiency virus type 1 group M subtype B, UniProt P12497, F1332H)
# Construct: HIV integrase full length gene
# ASSAY_INFO: Determination of enzyme (HIV integrase) inhibitory activity (strand transfer, microtiter plate, absorbance at 450 nm)
# CONDITION_CONTEXT: recombinant HIV integrase (F185H) expressed in E. coli; donor DNA on streptavidin plate, digoxigenin target DNA; 37° C.
# Description: The following explains evaluation methods of the HIV integrase inhibitory activity of the compound of the present invention. (i) Construction of Recombinant Integrase Gene Expression System (ii) Production and Purification of Integrase Protein […] A peroxidase color solution (Bio Rad, 100 μl) was added and allowed to react at room temperature for 4 min. […] The absorbance at 450 nm was measured. […]
pIC50: −log10 of the molar value.

MOLECULE	pIC50
O=C(O)c1cn(CCO)c2ccc(Cc3c(F)cccc3Cl)cc2c1=O [Example 1-64]	7.25
O=C(O)c1cn(CCO)c2ccc(Cc3cc(Br)ccc3Cl)cc2c1=O	6.89
CN(C)c1ccccc1Cc1ccc2c(c1)c(=O)c(C(=O)O)cn2CCO	6.47
CN(C)c1cc(Cc2cccc(Cl)c2F)cc2c(=O)c(C(=O)O)cn(CCO)c12	7.82
O=C(O)c1cn(CC2CCCCC2)c2ccc(Cc3cccc(Cl)c3Cl)cc2c1=O	6.89
CC[C@@H](CO)n1cc(C(=O)O)c(=O)c2cc(Cc3cccc(Cl)c3F)cc(OC)c21	8.17
Cc1cccc(Cc2ccc3c(c2)c(=O)c(C(=O)O)cn3CCO)c1Cl	7.11
CCC[C@@H](CO)n1cc(C(=O)O)c(=O)c2cc(Cc3cccc(Cl)c3F)c(OC)cc21	8.48
